Tested on: T24 bladder cancer cells
Assay: Cell viability assay (MTT), dark and blue light
Type: cell-based, Human
Details: blue light 458 nm
RECORDED ENDPOINT: SI (vs NIH-3T3) T24 Blue
Number, no unit, nothing else.

A selection of reference data follows.
>  <SMILES REPR>
F[P-](F)(F)(F)(F)F.O=C(CCCC[C@@H]1SC[C@@H]2NC(=O)N[C@@H]21)NCCCn1cc[n+]2[c]1[Ir-3]13([c]4ccccc4-c4ccc5ccccc5[n+]41)([c]1ccccc1-c1ccc4ccccc4[n+]13)[n+]1ccccc1-2

>  <SI (vs NIH-3T3) T24 Blue>
58.1

$$$$
>  <SMILES REPR>
CC(C)=CCC/C(C)=C/CC/C(C)=C/CSc1ccccc1C(=O)NCCCn1cc[n+]2[c]1[Ir-3]13([c]4ccccc4-c4ccc5ccccc5[n+]41)([c]1ccccc1-c1ccc4ccccc4[n+]13)[n+]1ccccc1-2.F[P-](F)(F)(F)(F)F

>  <SI (vs NIH-3T3) T24 Blue>
8.0

$$$$

q: Determine from records and report SI (vs NIH-3T3) T24 Blue for "COC(=O)c1ccc2[n+](c1)[Ir-3]13([c]4ccccc4-2)([c]2ccccc2-c2ccc(C(=O)OC)c[n+]21)[c]1n(CCCNC(=O)c2ccccc2SC/C=C(\C)CC/C=C(\C)CCC=C(C)C)cc[n+]1-c1cccc[n+]13.F[P-](F)(F)(F)(F)F"
a: 20.0

###

Experiment: Luminescence emission spectra and quantum yield
Assay type: physicochemical
Settings: room temperature; reference POPOP in hexane or rhodamine B in ethanol
RECORDED ENDPOINT: ΦP emission phosphorescence quantum yield (%)
Your answer should be a plain number; it is taken to be in %.

>  <SMILES REPR>
COC(=O)c1ccc2[n+](c1)[Ir-3]13([c]4ccccc4-2)([c]2ccccc2-c2ccc(C(=O)OC)c[n+]21)[c]1n(CCCNC(=O)[c-]2cccc2)cc[n+]1-c1cccc[n+]13.F[P-](F)(F)(F)(F)F.[Fe+2].c1cc[cH-]c1

>  <REPORTED VALUE>
0.17

$$$$
>  <SMILES REPR>
COC(=O)c1cccc2[c]1[Ir-3]13([c]4c(C(=O)OC)cccc4-c4cccc[n+]41)([c]1n(CCCNC(=O)[c-]4cccc4)cc[n+]1-c1cccc[n+]13)[n+]1ccccc1-2.F[P-](F)(F)(F)(F)F.[Fe+2].c1cc[cH-]c1

>  <REPORTED VALUE>
0.03

$$$$
>  <SMILES REPR>
F[P-](F)(F)(F)(F)F.O=C(NCCCn1cc[n+]2[c]1[Ir-3]13([c]4cc(F)cc(F)c4-c4cccc[n+]41)([c]1cc(F)cc(F)c1-c1cccc[n+]13)[n+]1ccccc1-2)[c-]1cccc1.[Fe+2].c1cc[cH-]c1

>  <REPORTED VALUE>
0.01

$$$$
>  <SMILES REPR>
COC(=O)c1ccc2[n+](c1)[Ir-3]13([c]4ccccc4-2)([c]2ccccc2-c2ccc(C(=O)OC)c[n+]21)[c]1n(CCCNC(=O)CCCC[C@@H]2SC[C@@H]4NC(=O)N[C@@H]42)cc[n+]1-c1cccc[n+]13.F[P-](F)(F)(F)(F)F

>  <REPORTED VALUE>
3.7

$$$$

q: Determine from records and report ΦP emission phosphorescence quantum yield for "F[P-](F)(F)(F)(F)F.O=C(O)CC[C@H](NC(=O)N[C@@H](CCCCNC(=O)CCn1cc[n+]2[c]1[Ir-3]13([c]4ccccc4-c4ccc5ccccc5[n+]41)([c]1ccccc1-c1ccc4ccccc4[n+]13)[n+]1ccccc1-2)C(=O)O)C(=O)O"
a: 0.1

q: Determine from records and report ΦP emission phosphorescence quantum yield for "COC(=O)c1cccc2[c]1[Ir-3]13([c]4c(C(=O)OC)cccc4-c4cccc[n+]41)([c]1n(CCC(=O)NCCCC[C@H](NC(=O)N[C@@H](CCC(=O)O)C(=O)O)C(=O)O)cc[n+]1-c1cccc[n+]13)[n+]1ccccc1-2.F[P-](F)(F)(F)(F)F"
a: 2.1

q: Determine from records and report ΦP emission phosphorescence quantum yield for "F[P-](F)(F)(F)(F)F.O=C(NCCCn1cc[n+]2[c]1[Ir-3]13([c]4ccccc4-c4c5ccccc5cc[n+]41)([c]1ccccc1-c1c4ccccc4cc[n+]13)[n+]1ccccc1-2)[c-]1cccc1.[Fe+2].c1cc[cH-]c1"
a: 0.07

q: Determine from records and report ΦP emission phosphorescence quantum yield for "F[P-](F)(F)(F)(F)F.O=C(NCCCn1cc[n+]2[c]1[Ir-3]13([c]4ccccc4-c4ccc5ccccc5[n+]41)([c]1ccccc1-c1ccc4ccccc4[n+]13)[n+]1ccccc1-2)[c-]1cccc1.[Fe+2].c1cc[cH-]c1"
a: 0.02
